- EXPERIMENTAL_SYSTEM: Staphylococcus aureus O-acetyl-L-serine sulfhydrylase (CysK) (S. aureus) (UniProt P63871)
- Sequence (P63871 whole entry): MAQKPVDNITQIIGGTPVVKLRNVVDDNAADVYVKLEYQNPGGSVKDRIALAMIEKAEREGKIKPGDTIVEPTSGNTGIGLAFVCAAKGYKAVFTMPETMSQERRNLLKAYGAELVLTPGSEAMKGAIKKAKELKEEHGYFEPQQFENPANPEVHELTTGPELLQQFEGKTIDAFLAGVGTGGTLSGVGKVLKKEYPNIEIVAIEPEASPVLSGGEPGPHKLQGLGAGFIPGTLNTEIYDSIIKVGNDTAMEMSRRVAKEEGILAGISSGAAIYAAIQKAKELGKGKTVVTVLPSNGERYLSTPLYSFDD
- PROCEDURE_DETAILS: SPR
OBSERVATION_TYPE: pKd
// pKd is dimensionless: -log10 of concentration (M)

pKd for MFYI [CymR 4] ?
5.39
